Tested on: UACC-257 melanoma
PROTOCOL_DETAILS: NCI-60 one-dose screen, 48 h (100 = growth as untreated, 0 = no growth, -100 = all killed)
CONDITION_SET: 10 µM unless noted
This is part of a sample that, as a whole, favours compounds with a hit. Of some 83,000 tested, about 20% had one in any assay.
True if growth is below 60%. False if not; exact matches included in False.

MOLECULE	LABEL_CLASS
Clc1cccc(Nc2nc(Nc3cnc4ccccc4c3)c3[nH]cnc3n2)c1	False
COc1cc2cc(COc3nccc(-c4ccc(Cl)cc4)n3)c(=O)[nH]c2cc1OC	False
CCCCN(CC)CCCCCCCCCCN1CCCc2cc(OC)ccc21	False
COc1c2ccccc2c(OC)c2[nH]c(=O)ccc12	True
COc1ccc(C(=O)c2sc3nc4c(c(C(F)(F)F)c3c2N)CN(C(C)=O)CC4)cc1OC	False
OC(c1cccc(C(F)(F)F)c1)c1cnccc1NC1CCCCCC1 (centres undefined)	True
COc1ccc(CN2C(=O)/C(=C\c3cc(OC)c(OC)c(OC)c3)c3cc(OC)ccc32)cc1	True
CN[C@@]12CC3(C=CC(=O)C=C3)O[C@]1(Cc1ccc(OC)cc1)N(C)C(=O)N2	False
C=C1C(=O)O[C@H]2[C@H]1CC/C(Cn1cc(Cc3c[nH]c4ccccc34)nn1)=C\CC[C@@]1(C)O[C@@H]21	True
O=C1/C(=C/c2ccc(F)cc2)CN(C(=O)CCN2CCC(=NO)CC2)C/C1=C\c1ccc(F)cc1	True
CCN(CC)CC(C)(C)C(=O)/C=C/c1ccccc1	False
CN1CCN(Cc2ccc(NC(=O)c3[nH]ncc3Nc3ncnc4c3CCC4)cc2)CC1	True
O=C(Nc1ccc(CN2CCOCC2)cc1)c1[nH]ncc1Nc1ncnc2sccc12	True
CCOC(=O)/C=C/C(=O)[C@H](CC(C)C)NC(=O)[C@H](Cc1ccccc1)NC(=O)OCc1ccccc1	False
O=C(Nc1ccc(F)cc1)Nc1ccc(CCO)cc1	False
CC[C@H](Nc1cc(C)nc(N)n1)c1nc2cccc(NCc3ccc(C(=O)NO)cc3)c2c(=O)n1-c1ccccc1	True
O=C(COc1cccc(/C=C2/Oc3ccccc3C2=O)c1)Nc1nccs1	False
CC(=O)Oc1cc2cnc3c4cc(OC(C)=O)c(OC(C)=O)cc4ccc3c2cc1OC(C)=O	True
COc1ccc(S(=O)(=O)NCCCNc2cc(-c3c(-c4cccc(OC)c4)nc4sccn34)ccn2)cc1	True
C[C@@]1(N2C(=O)OC[C@@H]2c2ccccc2)C(=O)N([C@H](CC(=O)N2CCC(N3CCCCC3)CC2)C(=O)NCc2cccc(C(F)(F)F)c2)[C@@H]1/C=C/c1ccccc1	True
CC(=O)C1=C(O)C=C2Oc3c(C(=O)/C=C/c4cc(Cl)cc(Cl)c4)c(O)c(C)c(O)c3[C@]2(C)C1=O	True
Cc1cc(Nc2nc(N3CCOCC3)nc3ccccc23)n[nH]1	False
Cc1cc(=O)oc2cc(Oc3nc(-c4cccs4)cn4c(-c5cccs5)cnc34)ccc12	True
CNc1cc2nc3cc(NC)c(C)cc3cc2cc1C	True
COc1ccc2nc3cc(Cl)ccc3c(N3CCN(c4nccc(Nc5ccc(Cl)cc5)n4)CC3)c2c1	False
CC1=C(C)C(=O)OC([C@](C)(O)[C@]2(O)CC[C@@]3(O)[C@@H]4C[C@H]5O[C@]56CC=CC(=O)[C@]6(C)[C@H]4CC[C@]23COC(=O)c2ccc(C)o2)C1 (some centres undefined)	True
C/C(=C(/c1ccc(O)cc1)c1ccc(Cl)cc1)c1ccccc1	True
C/C(=C(/c1ccc(O)cc1)c1ccc(OCCN2CCCC2)cc1)c1ccccc1	True
CS(=O)(=O)c1ccc(-c2cnc3ccc(-c4cccc(S(C)(=O)=O)c4)nn23)cc1	True
O=C1O[C@H]([C@H](O)CO)C(O)=C1O	False
Cc1ccc(NC(=O)c2sc3nc4c(cc3c2N)C(=O)CCC4)cc1C	True
COc1cnc2c(c1)C(=O)c1c-2n(CCCBr)c(=O)c2cc([N+](=O)[O-])ccc12	True
COc1ccc(/C=C2\CN(C(=O)CCN3CCC(=NO)CC3)C/C(=C\c3ccc(OC)cc3)C2=O)cc1	True
NC(CC(=O)O)C(=O)OCc1ccccc1 (centres undefined)	False
N#CC1=C(N)Oc2c(ccc3ccccc23)C1c1cccs1 (centres undefined)	False
Nc1cc(-c2nc3sccn3c2-c2ccnc(NCCCNS(=O)(=O)c3ccc(F)cc3)n2)ccc1F	True
CSc1ncnc2c1ncn2C1CCCO1 (centres undefined)	False
COc1ccccc1N1CCN(CCn2c(=O)c3c(c4ccccc4n3C)n(C)c2=O)CC1	False

---

System: SF-268 CNS
PROTOCOL_DETAILS: NCI-60 one-dose screen, 48 h (100 = growth as untreated, 0 = no growth, -100 = all killed)
CONDITION_SET: 10 µM unless noted
The panel holds about 83,000 compounds, 20% with a hit somewhere; the sample as a whole holds those more often.
# growth values compiled below
OBSERVABLE: growth (%)

COMPOUND	RESULT_NUMBER
Cc1nn(-c2nc3ccccc3[nH]2)c2c1C(c1ccc3c(c1)OCO3)CC(=O)N2 (stereo not given)	19.3
O=C(CO[N+](=O)[O-])Nc1ccc(C(=O)/C=C/c2ccc3c(c2)OCO3)cc1	82.4
Cc1csc2ccc(Cl)cc12	108
CCOC(=O)c1cnc2ccc(Br)cc2c1Nc1cccc(S(=O)(=O)NC)c1	94.9
CN(CC(=O)N(Cc1ccc(C2CCCCC2)cc1)c1ccc(C(=O)NO)cc1)S(=O)(=O)c1c(F)c(F)c(F)c(F)c1F	87

---

System: MDA-MB-435 melanoma
PROTOCOL_DETAILS: NCI-60 one-dose screen, 48 h
CONDITION_SET: 10 µM unless noted
About 83,000 compounds went through this panel and 20% of them were active in at least one assay; those are over-represented in the sample as a whole. Activity calls are given as the source filed them. Rule for the calls: active = growth percent below 10; inactive = the rest.
Classes used: active, inactive

COMPOUND	LABEL_CLASS
CC(=O)OCC(=O)C1CCC=CC1OC(C)=O (stereo not given)	inactive
CNCc1cccc2c1OCCOCCOCCN(C)S(=O)(=O)c1ccc(cc1)-c1cnc(N)c(n1)C(=O)N2	inactive
Clc1ccc(-c2nnc(COc3ccccc3Cl)o2)cc1	inactive
COc1ccc(-c2cc(C(=O)N=Nc3c(O)[nH]c4ccccc34)no2)cc1	inactive
COc1cnc2c(c1)C(=O)c1c-2n(CCCN2CCCC2)c(=O)c2cc([N+](=O)[O-])ccc12	active
CCN(C(=O)CN1CCN(c2cc3c(cc2F)c(=O)c(C(=O)O)cn3C2CC2)CC1)c1nc(-c2ccc(OC)cc2)cs1	inactive
COC(/C=C/c1ccc([N+](=O)[O-])cc1)OC	inactive
CN(C)CCOc1ccc(-c2nc3ccc(-c4nc5ccc(N6CCN(C)CC6)cc5[nH]4)cc3[nH]2)cc1	inactive
CCc1ccccc1NC(=O)c1sc2nc3c(cc2c1N)C(=O)CCC3	active
NC(=S)N/N=C/c1cc(-c2cccc(N)c2)ccn1	inactive
Nc1c(C(=O)Nc2cccc3c2OCCO3)sc2nc3c(cc12)C(=O)CCC3	active
O=C(O)c1ccc(=O)[nH]n1	inactive
CNCCCn1c2c(c3ccc([N+](=O)[O-])cc3c1=O)C(=O)c1cc(OC)cnc1-2	active
CCC(C)[C@@H]1NC(=O)[C@@H]2CCCN2C(=O)[C@H](Cc2ccccc2)NC(=O)[C@@H]2CCCN2C(=O)[C@H](Cc2ccccc2)NC(=O)[C@@H]2CCCN2C(=O)[C@H](Cc2ccccc2)NC1=O (stereo not given in full)	inactive
O=c1[nH]c(-c2ccccn2)nc2sc3c(c12)CCCCC3	inactive
COc1ccc(/C=C2\CN(C(=O)CCN3CCC(=NO)CC3)C/C(=C\c3ccc(OC)cc3)C2=O)cc1	active
O=C(O)c1cccc2c1-c1ccccc1C2=O	inactive
O=C1C=CC(=O)c2c1nc1n2CCCC1	active
CC(=O)OCC1OC(OC2=C(CC=C(Cl)Cl)C(=O)c3ccccc3C2=O)C(OC(C)=O)C(OC(C)=O)C1OC(C)=O (stereo not given)	inactive
C=C1CCC2C3(C)COC(C)(C)OC3CCC2(C)C1C/C=C1/C(=O)OCC1OC(C)=O (stereo not given)	inactive

---

System: NCI-H522 lung
PROTOCOL_DETAILS: NCI-60 one-dose screen, 48 h (100 = growth as untreated, 0 = no growth, -100 = all killed)
CONDITION_SET: 10 µM unless noted
Description: Growth inhibition of the NCI-H522 human Non-Small Cell Lung tumor cell line is measured as a screen for anti-cancer activity. Cells are grown in 96 well plates and exposed to the test compound for 48 hours. Compounds are tested at a single concentration, which is 10^-5 M for most compounds. The reported endpoint is percent growth (GI% or GIPRCNT), where numbers from 0 - 100% represent growth inhibition, and numbers from -100% - 0 represent cell death. […]
The panel holds about 83,000 compounds, 20% with a hit somewhere; the sample as a whole holds those more often.

COMPOUND	STUDY_SYSTEM	growth [%]
O=C1/C(=C/c2ccc(Cl)c(Cl)c2)CN(C(=O)CCN2CCC(=NO)CC2)C/C1=C\c1ccc(Cl)c(Cl)c1	NCI-H522 lung	-90.4
COc1ccc(S(=O)(=O)NCCCNc2cc(-c3c(-c4cccc(OC)c4)nc4sccn34)ccn2)cc1	NCI-H522 lung	52.7
CN(C)CC(=O)Nc1ccc(Cn2nnc3c2C(=O)c2nnn(Cc4ccc(NC(=O)CN(C)C)cc4)c2C3=O)cc1	NCI-H522 lung	-67
CN1CCN(Cc2ccc(NC(=O)c3cncc(C#Cc4c(N)ncc5ccc(C#N)cc45)c3)cc2C(F)(F)F)CC1	NCI-H522 lung	-53.7
CN1CCCCC1CCN1c2ccccc2Sc2ccc(Cl)cc21 (stereo not given)	NCI-H522 lung	65.5
